Test: Toxicity to mouse RBC assessed as hemolytic activity at 25 uM
Type: cell-based, Erythrocyte
Details: red blood cells, read-out: Activity
Non-standard residues stand in square brackets, D forms with d. Residues, ends and D or L forms follow the SMILES beside them. ξ: configuration not given here. Pro(3ξ,4ξ-(CH2)4) = O=C(O)[C@H]1NCC2CCCCC21; Tic = O=C(O)[C@@H]1Cc2ccccc2CN1; ξTic = O=C(O)C1Cc2ccccc2CN1
Overview of reported hemolysis at 25 µM across a group of compounds:
Supply the numeric figure in %, leaving out any unit text.

// below: answered compounds
**Query** Recorded hemolysis at 25 µM for CC(=O)NCC(=O)N[C@@H](Cc1ccccc1)C(=O)N1CC2CCCCC2[C@H]1C(=O)NCC(=O)N[C@@H](CCCCN)C(=O)N1CC2CCCCC2[C@H]1C(=O)NCC(=O)N[C@@H](Cc1ccccc1)C(=O)N1CC2CCCCC2[C@H]1C(=O)NCC(=O)N[C@@H](CCCCN)C(=O)N[C@@H](CCCCN)C(=O)N[C@@H](CCCCN)C(=O)N[C@@H](CCCCN)C(=O)N[C@@H](CCCCN)C(N)=O (stereo not given in full) (Ac-GF[Pro(3ξ,4ξ-(CH2)4)]GK[Pro(3ξ,4ξ-(CH2)4)]GF[Pro(3ξ,4ξ-(CH2)4)]GKKKKK-NH2) , please?
**Result** 3.2

**Query** I would be grateful if you could share the reported hemolysis at 25 µM for CC(=O)NCC(=O)N[C@@H](Cc1ccccc1)C(=O)N1Cc2ccccc2C[C@H]1C(=O)NCC(=O)N[C@@H](CCCCN)C(=O)N1Cc2ccccc2C[C@H]1C(=O)NCC(=O)N[C@@H](Cc1ccccc1)C(=O)N1Cc2ccccc2C[C@H]1C(=O)NCC(=O)N[C@H](CCCCN)C(=O)N1Cc2ccccc2C[C@H]1C(=O)N[C@@H](CCCCN)C(=O)N[C@@H](CCCCN)C(=O)N[C@@H](CCCCN)C(=O)N[C@@H](CCCCN)C(N)=O .
**Result** 4.9

**Query** For the compound shown here, CC(=O)NCC(=O)N[C@@H](Cc1ccccc1)C(=O)N1Cc2ccccc2C[C@H]1C(=O)NCC(=O)NCC(=O)N[C@@H](CCCCN)C(=O)N1Cc2ccccc2C[C@H]1C(=O)NCC(=O)NCC(=O)N[C@@H](Cc1ccccc1)C(=O)N1Cc2ccccc2C[C@H]1C(=O)NCC(=O)NCC(=O)N[C@@H](CCCCN)C(=O)N1Cc2ccccc2C[C@H]1C(=O)N[C@@H](CCCCN)C(=O)N[C@@H](CCCCN)C(=O)N[C@@H](CCCCN)C(=O)N[C@@H](CCCCN)C(N)=O (Ac-GF[Tic]GGK[Tic]GGF[Tic]GGK[Tic]KKKK-NH2) , give the reported hemolysis at 25 µM.
**Result** 3.8

**Query** # get_value(readout='hemolysis at 25 µM', item= CC(=O)NCC(=O)N1Cc2ccccc2C[C@H]1C(=O)N1CC2CCCCC2[C@H]1C(=O)N[C@@H](CCCCN)C(=O)N1Cc2ccccc2C[C@H]1C(=O)N1CC2CCCCC2[C@H]1C(=O)NCC(=O)N1Cc2ccccc2CC1C(=O)N1CC2CCCCC2[C@H]1C(=O)N[C@@H](CCCCN)C(=O)N1Cc2ccccc2C[C@H]1C(=O)N[C@@H](CCCCN)C(=O)N[C@@H](CCCCN)C(=O)N[C@@H](CCCCN)C(=O)N[C@@H](CCCCN)C(N)=O (stereo not given in full) (Ac-G[Tic][Pro(3ξ,4ξ-(CH2)4)]K[Tic][Pro(3ξ,4ξ-(CH2)4)]G[ξTic][Pro(3ξ,4ξ-(CH2)4)]K[Tic]KKKK-NH2) )
**Result** 9.2

Now look at this entry.
**Query** I would be grateful if you could share the reported hemolysis at 25 µM for CC(=O)NCC(=O)N[C@@H](Cc1ccccc1)C(=O)NCC(=O)N1CC2CCCCC2[C@H]1C(=O)NCC(=O)N[C@@H](CCCCN)C(=O)NCC(=O)N1CC2CCCCC2[C@H]1C(=O)NCC(=O)N[C@@H](Cc1ccccc1)C(=O)NCC(=O)N1CC2CCCCC2[C@H]1C(=O)NCC(=O)N[C@@H](CCCCN)C(=O)NCC(=O)N[C@@H](CCCCN)C(=O)N[C@@H](CCCCN)C(=O)N[C@@H](CCCCN)C(=O)N[C@@H](CCCCN)C(N)=O (stereo not given in full) (Ac-GFG[Pro(3ξ,4ξ-(CH2)4)]GKG[Pro(3ξ,4ξ-(CH2)4)]GFG[Pro(3ξ,4ξ-(CH2)4)]GKGKKKK-NH2) .
**Result** 3.3
